- protocol.summary: Acute toxicity (LD50) in rat
- Design: species or system male Sprague-Dawley rats
- measurement.parameters: in vivo, iv, Litchfield and Wilcoxon
measure: LD50 (µmol/kg)
Provide only the numeric value, understood in µmol/kg.

Quick one: LD50 for c1ccc(-c2c[n+]3ccccc3n2CCCCCCn2c(-c3ccccc3)c[n+]3ccccc23)cc1 ?
3.1

Cc1c(-c2ccccc2)n(CCn2c(-c3ccccc3)c(C)[n+]3ccccc23)c2cccc[n+]12 ?
9.7

Would you mind doing Brc1ccc(-c2c[n+]3ccccc3n2CCCCCCn2c(-c3ccc(Br)cc3)c[n+]3ccccc23)cc1 as well?
6

Next molecule up: Cc1c(-c2ccccc2)n(CCCCCCCCn2c(-c3ccccc3)c(C)[n+]3ccccc23)c2cccc[n+]12
2
